Below is a list of entries, each paired with its recorded IC50 value.
test system: Plasmodium falciparum D6 clone (Sierra Leon, chloroquine-sensitive); experiment: In vitro antimalarial assay, chloroquine-sensitive D6 clone; assay type: cell-based; conditions: D6 clone; converted with molecular weight; read-out: P. falciparum D6 IC50
Respond with the bare value in nM.

[Cl-].[Cl-].[Mn+2].c1ccc(CN2CCN3CCN(CC2)CCN(Cc2ccccc2)CC3)cc1    265
CN1CCCN2CCN(CCCN(Cc3ccc(CN4CCCN5CCN(C)CCCN(CC5)CC4)cc3)CC2)CC1.[Cl-].[Cl-].[Cl-].[Cl-].[Mn+2].[Mn+2] [JGL16A]    957
CN1CCCN2CCN(CCCN(Cc3cccc(CN4CCCN5CCN(C)CCCN(CC5)CC4)c3)CC2)CC1.Cl.Cl.Cl.Cl.Cl.Cl.Cl.Cl [TJS04, m-CB-cyclams HCl salt]    852
[Cl-].[Cl-].[Mn+2].c1ccc(CN2CCCN3CCN(CCCN(Cc4ccccc4)CC3)CC2)cc1    157
CN1CCCN2CCN(CCCN(Cc3ccccc3)CC2)CC1.[Cl-].[Cl-].[Fe+2]    300
[Cl][Mn-2]([Cl])([Cl])[Cl].[Mn+2].c1ccc(CN2CCCN3CCCN(CCCN(Cc4ccccc4)CC3)CC2)cc1 [BME08, [Mn(Bn2PBCyclam)][MnCl4]]    144

Requested read-out IC50, target or system Plasmodium falciparum D6 clone (Sierra Leon, chloroquine-sensitive), entry `c1cc(CN2CCCN3CCCN(CCCNCC3)CC2)ccc1CN1CCCN2CCCN(CCCNCC2)CC1`
1480

What value of IC50 on Plasmodium falciparum D6 clone (Sierra Leon, chloroquine-sensitive) does `Clc1ccc2c(N3CCCNCCCNCCNCCC3)ccnc2c1` have?
54
